These entries and their values trace back to ChEMBL document CHEMBL4342424.

tested on: A549; experiment: Antiproliferative activity against human A549 cells assessed as reduction in cell viability after 72 hrs by MTT assay; format: functional, cell-based; conditions: A549, 72 h
measurement_kind: IC50 (µM)
Reply with just the number (in µM).

{"columns": ["structure_as_smiles", "measurement_kind", "unit_descriptor", "result_number"],
 "data": [
  ["O=C(OCCOCCOCCOCCOCCOCCNC(=S)Nc1ccc(-c2c3ccc(=O)cc-3oc3cc(O)ccc23)c(C(=O)O)c1)c1ccc(-c2c(-c3ccccc3)[nH]c3ccccc23)cc1", "IC50", "µM", 238]
]}

I'd like to know its IC50. The molecule in question is `COC(=O)c1ccc(-c2c(-c3ccccc3)n(CCOCCOCCO)c3ccccc23)cc1`
30.8

Note, next up: `O=C(OCCOCCOCCO)c1ccc(-c2c(-c3ccccc3)[nH]c3ccccc23)cc1`
10.2

Another molecule: `COC(=O)c1ccc(-c2c(-c3ccccc3)c3ccccc3n2CCOCCOCCO)cc1`
41.3

Same for `O=C(OCCOCCOCCO)c1ccc(-c2[nH]c3ccccc3c2-c2ccccc2)cc1`
29.5
